target: CD117 on Kasumi-1 cells and primary human CD34+ bone marrow cells (human, UniProt P10721 26-976); experiment: cell-based or functional assay
Sequence (P10721 26-976): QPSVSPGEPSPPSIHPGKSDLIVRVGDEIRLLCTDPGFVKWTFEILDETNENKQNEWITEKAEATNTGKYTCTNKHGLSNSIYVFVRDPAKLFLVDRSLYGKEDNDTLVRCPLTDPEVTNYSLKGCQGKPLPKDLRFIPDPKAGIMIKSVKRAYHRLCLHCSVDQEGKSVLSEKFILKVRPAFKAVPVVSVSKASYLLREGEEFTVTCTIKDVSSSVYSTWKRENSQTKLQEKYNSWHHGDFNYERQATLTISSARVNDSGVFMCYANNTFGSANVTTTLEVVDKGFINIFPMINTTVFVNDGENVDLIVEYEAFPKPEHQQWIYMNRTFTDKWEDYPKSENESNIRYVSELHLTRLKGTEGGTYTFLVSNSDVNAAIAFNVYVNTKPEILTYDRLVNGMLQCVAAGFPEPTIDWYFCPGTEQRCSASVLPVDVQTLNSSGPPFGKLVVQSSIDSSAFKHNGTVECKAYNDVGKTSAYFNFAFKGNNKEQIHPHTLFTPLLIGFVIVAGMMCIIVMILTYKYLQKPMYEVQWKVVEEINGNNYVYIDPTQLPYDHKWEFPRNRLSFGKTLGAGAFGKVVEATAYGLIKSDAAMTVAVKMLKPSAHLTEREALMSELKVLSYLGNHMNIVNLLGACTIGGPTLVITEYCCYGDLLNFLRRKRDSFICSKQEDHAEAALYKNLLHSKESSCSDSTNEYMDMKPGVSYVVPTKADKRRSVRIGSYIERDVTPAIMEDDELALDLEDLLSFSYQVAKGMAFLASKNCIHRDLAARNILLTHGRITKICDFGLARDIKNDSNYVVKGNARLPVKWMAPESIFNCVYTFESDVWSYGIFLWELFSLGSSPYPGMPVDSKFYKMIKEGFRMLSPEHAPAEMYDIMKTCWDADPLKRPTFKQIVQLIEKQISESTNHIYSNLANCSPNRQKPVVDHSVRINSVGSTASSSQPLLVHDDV
Quantity Kind: % efficacy, killing of primary human CD34+CD90+ cells (%)

Binder	Number
HC-246/LC-246 anti-CD117-ADC (conjugated to an amatoxin) (antibody, V domains shown, antibody conjugated to an amatoxin; site not stated) VH: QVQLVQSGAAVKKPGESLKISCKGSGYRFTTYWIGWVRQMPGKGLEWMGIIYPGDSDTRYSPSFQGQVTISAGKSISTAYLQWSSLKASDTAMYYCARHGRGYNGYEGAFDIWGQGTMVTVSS VL: DIQMTQSPSSLSASVGDRVTITCRASQGIGSALAWYQQKPGKAPKLLIYDASTLESGVPSRFSGSGSGTDFTLTISSLQPEDFATYYCQQFNGYPLTFGQGTRLEIK	67.8
HC-81/LC-81 anti-CD117-ADC (conjugated to an amatoxin) (antibody, V domains shown, antibody conjugated to an amatoxin; site not stated) VH: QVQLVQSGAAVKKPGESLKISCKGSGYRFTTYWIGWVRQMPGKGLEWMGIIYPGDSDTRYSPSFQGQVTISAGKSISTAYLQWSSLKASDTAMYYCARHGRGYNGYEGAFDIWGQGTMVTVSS VL: DIQLTQSPSSLSASVGDRVTITCRASQGVISALAWYQQKPGKAPKLLIYDASTLESGVPSRFSGSGSGTDFTLTISSLQPEDFATYYCQQFNSYPLTFGGGTKVEIK	68.7
HC-245/LC-245 anti-CD117-ADC (conjugated to an amatoxin) (antibody, V domains shown, antibody conjugated to an amatoxin; site not stated) VH: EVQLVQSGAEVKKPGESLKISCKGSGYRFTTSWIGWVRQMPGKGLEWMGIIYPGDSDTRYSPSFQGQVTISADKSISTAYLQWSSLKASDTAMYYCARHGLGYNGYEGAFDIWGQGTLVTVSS VL: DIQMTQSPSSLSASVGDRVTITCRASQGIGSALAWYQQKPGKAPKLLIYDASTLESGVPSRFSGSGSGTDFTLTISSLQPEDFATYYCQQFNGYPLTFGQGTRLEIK	76.4
